- testSystem: CDK12/CycK (Homo sapiens)
- methodSummary: Inhibition of CDK12 (ADP-Glo kinase assay)
- Assay type: biochemical
- conditionsUsed: 60 nM CDK12/CycK, 30 minutes pre-incubation, 1 μM ATP, 0.5 μM RBER-IRStide substrate, 1 h at 25° C., read-out: CDK12/cyclin K IC50
pIC50: −log10 of the molar value.
recordedEndpoint: pIC50

# example entries with known answers
C=CC(=O)N1CCC[C@@H]1C(=O)N1CCC(c2cc3c(-c4cnn5ncccc45)ccnc3[nH]2)CC1: > 7.00
COCCNC(=O)c1cc2c(-c3cnn4ncccc34)ccnc2[nH]1: 4.52 to 6.00
O=C(NCCc1cc2c(-c3cnn4ncccc34)ccnc2[nH]1)[C@@H]1CCCN1: 6.00 to 7.00

Take each entry in turn and give its pIC50.
1. CCn1cc(-c2ccnc3[nH]ccc23)nn1
2. C=CC(=O)Nc1ccc(C(=O)NCc2cc3c(-c4cnn5ncccc45)ccnc3[nH]2)cc1
3. C=CC(=O)NCc1ccc(C(=O)NCc2cc3c(-c4cnn5ncccc45)ccnc3[nH]2)cc1
4. C=CC(=O)N[C@@H]1CC[C@@H](C(=O)NCc2cc3c(-c4cnn5ncccc45)ccnc3[nH]2)C1
5. C=CC(=O)NC1(C(=O)NCCCc2cc3c(-c4cnn5ncccc45)ccnc3[nH]2)CC1

Resp:
1: 4.52 to 6.00; 2: 6.00 to 7.00; 3: 4.52 to 6.00; 4: 4.52 to 6.00; 5: > 7.00

---

Please go through the items and note down their IC50.
- testSystem: CDK12/CycK (Homo sapiens, UniProt Q9NYV4)
- Sequence (Q9NYV4 whole entry): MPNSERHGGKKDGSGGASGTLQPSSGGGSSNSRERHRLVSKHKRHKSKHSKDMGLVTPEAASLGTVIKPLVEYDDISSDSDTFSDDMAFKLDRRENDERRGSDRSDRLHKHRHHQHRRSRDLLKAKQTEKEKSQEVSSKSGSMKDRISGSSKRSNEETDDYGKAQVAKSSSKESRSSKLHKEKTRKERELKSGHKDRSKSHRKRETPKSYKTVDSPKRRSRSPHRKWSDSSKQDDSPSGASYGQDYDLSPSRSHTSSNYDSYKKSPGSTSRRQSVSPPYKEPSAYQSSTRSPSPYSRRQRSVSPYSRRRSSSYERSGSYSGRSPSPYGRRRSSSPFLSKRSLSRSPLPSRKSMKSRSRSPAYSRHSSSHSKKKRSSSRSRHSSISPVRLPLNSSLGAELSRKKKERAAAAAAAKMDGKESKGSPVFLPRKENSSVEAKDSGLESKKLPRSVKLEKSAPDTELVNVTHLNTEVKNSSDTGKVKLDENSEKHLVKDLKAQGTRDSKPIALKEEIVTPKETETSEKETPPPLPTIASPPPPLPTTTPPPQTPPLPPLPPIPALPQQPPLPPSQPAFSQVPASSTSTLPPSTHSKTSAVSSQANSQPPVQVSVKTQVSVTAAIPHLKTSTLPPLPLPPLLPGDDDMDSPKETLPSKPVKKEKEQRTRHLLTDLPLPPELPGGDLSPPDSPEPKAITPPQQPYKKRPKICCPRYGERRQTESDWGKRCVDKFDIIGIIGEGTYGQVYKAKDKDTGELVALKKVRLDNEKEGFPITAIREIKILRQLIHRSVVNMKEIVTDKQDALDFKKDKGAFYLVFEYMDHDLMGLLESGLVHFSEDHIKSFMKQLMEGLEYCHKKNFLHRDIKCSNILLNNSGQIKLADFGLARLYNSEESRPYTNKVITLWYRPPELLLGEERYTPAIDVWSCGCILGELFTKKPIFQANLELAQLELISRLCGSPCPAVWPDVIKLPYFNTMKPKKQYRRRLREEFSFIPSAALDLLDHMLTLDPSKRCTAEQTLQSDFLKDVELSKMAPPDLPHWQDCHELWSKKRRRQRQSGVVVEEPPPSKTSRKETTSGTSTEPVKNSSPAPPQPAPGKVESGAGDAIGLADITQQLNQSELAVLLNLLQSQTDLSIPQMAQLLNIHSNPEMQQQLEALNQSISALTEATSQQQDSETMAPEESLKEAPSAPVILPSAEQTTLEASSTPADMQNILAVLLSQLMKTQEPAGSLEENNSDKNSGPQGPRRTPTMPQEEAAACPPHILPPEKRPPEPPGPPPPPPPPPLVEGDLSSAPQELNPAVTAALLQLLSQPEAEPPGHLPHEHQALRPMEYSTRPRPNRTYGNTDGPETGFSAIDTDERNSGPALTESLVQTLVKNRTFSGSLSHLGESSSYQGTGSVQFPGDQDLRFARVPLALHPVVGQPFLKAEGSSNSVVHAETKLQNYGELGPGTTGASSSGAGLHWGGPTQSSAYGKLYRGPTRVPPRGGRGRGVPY
- Sequence (O75909 whole entry partner): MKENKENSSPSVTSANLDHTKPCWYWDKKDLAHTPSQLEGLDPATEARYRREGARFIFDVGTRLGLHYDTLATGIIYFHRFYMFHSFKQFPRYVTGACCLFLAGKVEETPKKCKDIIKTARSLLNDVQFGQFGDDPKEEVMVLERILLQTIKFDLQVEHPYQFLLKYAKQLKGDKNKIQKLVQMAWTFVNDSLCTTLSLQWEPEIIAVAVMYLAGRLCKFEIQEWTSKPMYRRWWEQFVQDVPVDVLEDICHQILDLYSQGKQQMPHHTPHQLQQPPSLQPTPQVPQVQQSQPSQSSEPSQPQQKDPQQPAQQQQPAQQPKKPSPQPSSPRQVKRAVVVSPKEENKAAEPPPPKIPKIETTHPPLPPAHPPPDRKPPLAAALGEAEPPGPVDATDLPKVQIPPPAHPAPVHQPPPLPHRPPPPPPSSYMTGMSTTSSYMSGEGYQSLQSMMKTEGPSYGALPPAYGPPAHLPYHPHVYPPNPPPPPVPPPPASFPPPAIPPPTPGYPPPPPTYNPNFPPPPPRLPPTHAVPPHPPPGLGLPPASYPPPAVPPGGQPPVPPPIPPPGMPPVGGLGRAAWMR
- methodSummary: Inhibition of CDK12 (ADP-Glo kinase assay)
- conditionsUsed: 60 nM CDK12/CycK, 30 minutes pre-incubation, 1 μM ATP, 0.5 μM RBER-IRStide substrate, 1 h at 25° C., read-out: CDK12/cyclin K IC50
Structures can show the parent of a compound that is named as a salt.

Reference set (6 entries):
C=CC(=O)N1CCCC[C@@H]1C(=O)NCCc1cc2c(-c3cnn4ncccc34)ccnc2[nH]1 [Example 93]: < 100 nM
O=C(CCl)N1CCC(C(=O)N2CCC(c3cc4c(-c5cnn6ncccc56)ccnc4[nH]3)C2)CC1 (stereo not shown) [Example 158]: < 100 nM
C=CC(=O)Nc1ccc(C(=O)NCCc2cc3c(-c4cnn5ncccc45)ccnc3[nH]2)cc1 [Example 76]: < 100 nM
CN(C)C/C=C/C(=O)Nc1ccc(C(=O)N2CCC(c3cc4c(-c5cnn6ncccc56)ccnc4[nH]3)C2)cc1 (stereo not shown) [Example 127, Formate Salt]: < 100 nM
O=C(NCCc1cc2c(-c3cnn4ncccc34)ccnc2[nH]1)[C@@H]1CCCN1C(=O)CO [Example 78]: 100 to 1000 nM
CCNCCc1cc2c(-c3cnn4ncccc34)ccnc2[nH]1 [Example 31]: 100 to 1000 nM

Provide IC50 values for the following items, in order.
1. C=CC(=O)N1CCC[C@H](C(=O)NCCc2cc3c(-c4cnn5ncccc45)c(Cl)cnc3[nH]2)C1 [Example 55]
2. O=C(CCl)Nc1ccccc1C(=O)N1CCC(c2cc3c(-c4cnn5ncccc45)ccnc3[nH]2)C1 (stereo not shown) [Example 169]
3. C=CC(=O)N1CCC[C@H]1C(=O)N1CCC(c2cc3c(-c4cnn5ncccc45)ccnc3[nH]2)CC1 [Example 194]
4. C=CC(=O)N1CCC[C@H]1C(=O)NCc1cc2c(-c3cnn4ncccc34)ccnc2[nH]1 [Example 183]
5. C=CC(=O)Nc1cccc(C(=O)Nc2cccc(-c3cc4c(-c5cnn6ncccc56)ccnc4[nH]3)c2)c1 [Example 115]
6. C=CC(=O)Nc1cccc(C(=O)NCc2cc3c(-c4cnn5ncccc45)ccnc3[nH]2)c1 [Example 180]
7. C=CC(=O)N1CC(C(=O)NCCc2cc3c(-c4cnn5ncccc45)ccnc3[nH]2)C1 [Example 37]
8. CN(C)C/C=C/C(=O)N1CCC(CC(=O)N2CCC(c3cc4c(-c5cnn6ncccc56)ccnc4[nH]3)C2)CC1 (stereo not shown) [Example 69]

Resp:
["< 100 nM", "< 100 nM", "< 100 nM", "1000 to 30000 nM", "< 100 nM", "100 to 1000 nM", "< 100 nM", "100 to 1000 nM"]

List reported IC50 for each of these compounds:
1. c1cnn2ncc(-c3ccnc4[nH]c(C5CCNC5)cc34)c2c1 (stereo not shown) [Example 122]
2. C=CC(=O)N1CCC(CC(=O)NCc2cc3c(-c4cnn5ncccc45)ccnc3[nH]2)CC1 [Example 193]

Resp:
< 100 nM
1000 to 30000 nM

---

- testSystem: CDK12/CycK (Homo sapiens, UniProt Q9NYV4)
- methodSummary: Inhibition of CDK12 (ADP-Glo kinase assay)
- Assay type: biochemical
- conditionsUsed: 60 nM CDK12/CycK, 30 minutes pre-incubation, 1 μM ATP, 0.5 μM RBER-IRStide substrate, 1 h at 25° C., read-out: CDK12/cyclin K IC50
recordedEndpoint: IC50

Some entries whose results are on file:
C=CC(=O)Nc1cccc(C(=O)NCCc2cc3c(-c4cnn5ncccc45)c(Cl)cnc3[nH]2)c1: < 100 nM
c1ccc(Cc2cc3c(-c4cnn5ncccc45)ccnc3[nH]2)cc1: 1000 to 30000 nM
OCC(O)COc1cnn2ncc(-c3ccnc4[nH]ccc34)c2c1 (centres unmarked): 1000 to 30000 nM
C=CC(=O)N1CCC1C(=O)NCCc1cc2c(-c3cnn4ncccc34)ccnc2[nH]1 (single isomer, unassigned) [Example 40]: < 100 nM
Clc1cnc2[nH]ccc2c1-c1cnn2ncccc12: 100 to 1000 nM

# batch: return IC50 for each of the 3 compounds below
1. C=CC(=O)N1CCC[C@H]1C(=O)N1CC[C@H](c2cc3c(-c4cnn5ncccc45)ccnc3[nH]2)C1
2. CC(C)(CCl)C(=O)N1CCC[C@H]1C(=O)NCCc1cc2c(-c3cnn4ncccc34)ccnc2[nH]1
3. C=CC(=O)N1CCC[C@H]1C(=O)OCCc1cc2c(-c3cnn4ncccc34)ccnc2[nH]1

Resp:
1: < 100 nM; 2: 100 to 1000 nM; 3: 100 to 1000 nM

---

- testSystem: CDK12/CycK (Homo sapiens, UniProt Q9NYV4)
- methodSummary: Inhibition of CDK12 (ADP-Glo kinase assay)
- conditionsUsed: 60 nM CDK12/CycK, 30 minutes pre-incubation, 1 μM ATP, 0.5 μM RBER-IRStide substrate, 1 h at 25° C., read-out: CDK12/cyclin K IC50
So I've got a bunch of molecules here, and I need their IC50 values.

NCCc1cc2c(-c3cnn4ncccc34)c(Cl)cnc2[nH]1: 0.1 to 1 µM
CN(C)C(=O)c1cc2c(-c3cnn4ncccc34)ccnc2[nH]1: 1 to 30 µM
CN1CCN(Cc2cc3c(-c4cnn5ncccc45)ccnc3[nH]2)CC1: 0.1 to 1 µM
O=S(=O)(NCc1cc2c(-c3cnn4ncccc34)ccnc2[nH]1)C1CC1: 1 to 30 µM
CN(C)CCNCc1cc2c(-c3cnn4ncccc34)ccnc2[nH]1: 1 to 30 µM

Please report IC50 for every entry that follows.
1. CNC(=O)c1cc2c(-c3cnn4ncccc34)ccnc2[nH]1
2. C=CC(=O)N1CCC[C@H](C(=O)NCCc2cc3c(-c4cnn5ncccc45)ccnc3[nH]2)C1
3. CN(C)CCNC(=O)c1cc2c(-c3cnn4ncccc34)ccnc2[nH]1
4. C=CC(=O)N1CCOC[C@H]1C(=O)NCCc1cc2c(-c3cnn4ncccc34)ccnc2[nH]1

Resp:
1. 0.1 to 1 µM
2. < 0.1 µM
3. 1 to 30 µM
4. < 0.1 µM

---

- testSystem: CDK12/CycK (Homo sapiens, UniProt Q9NYV4)
- methodSummary: Inhibition of CDK12 (ADP-Glo kinase assay)
- conditionsUsed: 60 nM CDK12/CycK, 30 minutes pre-incubation, 1 μM ATP, 0.5 μM RBER-IRStide substrate, 1 h at 25° C., read-out: CDK12/cyclin K IC50
- Protocol: Assay buffer comprised 50 mM HEPES pH 7.5, 1 mM DTT, 20 mM MgCl2, 3 mM MnCl2, 3 μM Na3VO4 and 50 μg/ml PEG8000. Kinase reactions were carried out in 384-well Optiplates™ (PerkinElmer 6007299). […] Incubations were carried out for 1 h at 25° C. with kinase activity determined using the ADP-Glo™ reagent from Promega according to the manufacturer's instructions. Light generated is proportional to kinase activity and measured using a luminometer (EnVision, PerkinElmer). […]
Where a name gives a salt, the structure may show the parent alone.
recordedEndpoint: IC50

Some entries whose results are on file:
C=CC(=O)N1CCC[C@H]1C(=O)NCCCc1cc2c(-c3cnn4ncccc34)ccnc2[nH]1 [Example 216]: < 100 nM
c1cnn2ncc(-c3ccnc4[nH]c([C@@H]5CCNC5)cc34)c2c1 (single isomer, unassigned) [Example 124]: 100 to 1000 nM
CC(C)CNC(=O)c1cc2c(-c3cnn4ncccc34)ccnc2[nH]1 [Example 4]: 1000 to 30000 nM
C=CC(=O)N1CCC2(CCCN(Cc3cc4c(-c5cnn6ncccc56)ccnc4[nH]3)C2)C1 (stereo not drawn) [Example 198]: 1000 to 30000 nM
C=CC(=O)Nc1cccc(C(=O)N(C)CCc2cc3c(-c4cnn5ncccc45)ccnc3[nH]2)c1 [Example 49]: 100 to 1000 nM

I'm hoping you can list IC50 for every compound here, please.
1. C=CC(=O)Nc1cccc(C(=O)N2CC[C@@H](c3cc4c(-c5cnn6ncccc56)ccnc4[nH]3)C2)c1 (single isomer, unassigned) [Example 149]
2. CN(C)C/C=C/C(=O)N1CCCC[C@@H]1C(=O)NCCc1cc2c(-c3cnn4ncccc34)ccnc2[nH]1 [Example 88, Formate Salt]

Resp:
< 100 nM
100 to 1000 nM

// for each compound in input: emit IC50
1. CCOCCC(=O)Nc1ccc(C(=O)NCCc2cc3c(-c4cnn5ncccc45)ccnc3[nH]2)cc1 [Example 81]
2. COCCOc1cnn2ncc(-c3ccnc4[nH]ccc34)c2c1 [Example 24]

Resp:
1. < 100 nM
2. 1000 to 30000 nM

For the 4 compounds below, give their IC50 values.
1. CN(C)C/C=C/C(=O)N1CCC(C(=O)N2CCC(c3cc4c(-c5cnn6ncccc56)ccnc4[nH]3)CC2)CC1 [Example 66]
2. C=CC(=O)N1CCN(C(=O)/C=C/c2cc3c(-c4cnn5ncccc45)ccnc3[nH]2)CC1 [Example 209]
3. CCC(=O)N1CCC[C@H]1C(=O)NCCc1cc2c(-c3cnn4ncccc34)ccnc2[nH]1 [Example 73]
4. C=CC(=O)N1CCC[C@H]1C(=O)NCCc1cc2c(-c3ccncc3)ccnc2[nH]1 [Example 95]

Resp:
1. < 100 nM
2. < 100 nM
3. 1000 to 30000 nM
4. 1000 to 30000 nM

// batch mode: one IC50 value per listed entry
1. NC(=O)c1cc2c(-c3cnn4ncccc34)ccnc2[nH]1 [Example 6]
2. C=CC(=O)Nc1ccc(C(=O)N2CCC(c3cc4c(-c5c[nH]c6ccccc56)ccnc4[nH]3)C2)cc1 (stereo not drawn) [Example 129]

Resp:
["100 to 1000 nM", "< 100 nM"]
